Tested on: NCI-H1975
Test: cells
Format: functional, cell-based
Settings: Homo sapiens
Some compounds, each annotated with its measured pIC50.
Hey, just a heads up that pIC50 is the negative log base 10 of the concentration in molar.

Reference set (4 entries):
In [3]: df
Out[3]:
                           molecular_string  measured_on  recorded_metric  recorded_number
0    C=CC(=O)Nc1ccc2ncnc(Nc3cccc(Br)c3)c2c1    NCI-H1975            pIC50             6.36
1      C=CC(=O)Nc1ccc2ncnc(Nc3ccccc3CC)c2c1    NCI-H1975            pIC50             4.80
2   C=CC(=O)Nc1ccc2ncnc(Nc3ccc(Br)cc3F)c2c1    NCI-H1975            pIC50             6.55
3  C=CC(=O)Nc1ccc2ncnc(Nc3ccc(Br)c(C)c3)c2c1    NCI-H1975            pIC50             5.74

Now look at this one.
# pIC50 lookup, item "C=CC(=O)N1CCc2c(sc3ncnc(Nc4cccc(CC)c4)c23)C1"
4.62

====

Test system: NCI-H1975
Assay: cells
Assay type: functional, cell-based
Conditions: Homo sapiens
Recorded Metric: pIC50
Hey, just a heads up that pIC50 is the negative log base 10 of the concentration in molar.

In [3]: df
Out[3]:
                          molecular_string  recorded_metric  recorded_number
0  C=CC(=O)Nc1ccc2ncnc(Nc3ccc(Br)cc3C)c2c1            pIC50             5.73

Now look at this one.
# pIC50 lookup, item "C=CC(=O)Nc1ccc2ncnc(Nc3c(F)cccc3Br)c2c1"
6.59

====

Some compounds, each annotated with its measured IC50.
Molecular target: Epidermal growth factor receptor (Homo sapiens, UniProt P00533, L858R/T790M)
Sequence (P00533 25-1210 T790M/L858R limits assumed): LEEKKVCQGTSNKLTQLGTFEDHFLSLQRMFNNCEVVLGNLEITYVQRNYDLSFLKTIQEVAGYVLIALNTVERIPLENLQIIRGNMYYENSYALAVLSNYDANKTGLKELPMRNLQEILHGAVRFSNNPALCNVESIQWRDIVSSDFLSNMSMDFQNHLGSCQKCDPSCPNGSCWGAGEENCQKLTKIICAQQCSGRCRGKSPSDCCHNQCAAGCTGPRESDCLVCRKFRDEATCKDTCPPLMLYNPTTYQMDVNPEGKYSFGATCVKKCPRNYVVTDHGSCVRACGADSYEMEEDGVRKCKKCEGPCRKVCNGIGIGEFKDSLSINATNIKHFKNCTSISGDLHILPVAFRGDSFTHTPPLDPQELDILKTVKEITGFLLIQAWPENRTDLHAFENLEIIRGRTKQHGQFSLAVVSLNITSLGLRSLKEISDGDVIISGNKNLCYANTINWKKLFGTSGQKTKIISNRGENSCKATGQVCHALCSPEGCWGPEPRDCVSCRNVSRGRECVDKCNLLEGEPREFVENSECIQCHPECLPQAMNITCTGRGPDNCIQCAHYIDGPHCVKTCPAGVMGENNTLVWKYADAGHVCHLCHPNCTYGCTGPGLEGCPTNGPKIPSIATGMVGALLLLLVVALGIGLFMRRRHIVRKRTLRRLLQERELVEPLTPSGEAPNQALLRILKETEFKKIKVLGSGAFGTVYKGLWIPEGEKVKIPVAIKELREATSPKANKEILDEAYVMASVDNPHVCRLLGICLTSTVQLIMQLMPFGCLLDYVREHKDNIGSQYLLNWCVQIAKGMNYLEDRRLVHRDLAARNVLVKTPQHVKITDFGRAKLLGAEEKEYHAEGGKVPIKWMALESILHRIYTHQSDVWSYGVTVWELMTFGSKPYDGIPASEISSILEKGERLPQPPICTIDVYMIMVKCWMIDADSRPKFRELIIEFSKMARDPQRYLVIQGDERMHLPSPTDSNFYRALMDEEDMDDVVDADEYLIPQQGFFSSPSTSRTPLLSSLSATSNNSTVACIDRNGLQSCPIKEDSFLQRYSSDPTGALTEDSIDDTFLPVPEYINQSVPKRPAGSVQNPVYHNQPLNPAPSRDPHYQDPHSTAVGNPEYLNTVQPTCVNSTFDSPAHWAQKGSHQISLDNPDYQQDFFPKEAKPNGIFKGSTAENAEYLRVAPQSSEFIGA
Respond with the bare value in nM.

Reference set (4 entries):
In [3]: df
Out[3]:
                          molecular_string  recorded_metric  recorded_number
0   C=CC(=O)Nc1ccc2ncnc(Nc3cccc(C)c3F)c2c1             IC50           111000
1  C=CC(=O)Nc1ccc2ncnc(Nc3ccc(Br)cc3F)c2c1             IC50               36
2       C=CC(=O)Nc1ccc2ncnc(NC3CCCCC3)c2c1             IC50             2800
3     C=CC(=O)Nc1ccc2ncnc(Nc3ccccc3CC)c2c1             IC50             2000

Find the measured IC50: item "C=CC(=O)Nc1ccc2ncnc(Nc3cccc(CC)c3)c2c1" , target or system Epidermal growth factor receptor (Homo sapiens, UniProt P00533, L858R/T790M).
275

Find the measured IC50: item "C=CC(=O)N1CCc2c(sc3ncnc(Nc4cccc(C)c4F)c23)C1" , target or system Epidermal growth factor receptor (Homo sapiens, UniProt P00533, L858R/T790M).
280

Find the measured IC50: item "C=CC(=O)N1CCc2c(sc3ncnc(Nc4ccc(CC)cc4)c23)C1" , target or system Epidermal growth factor receptor (Homo sapiens, UniProt P00533, L858R/T790M).
130

Find the measured IC50: item "C=CC(=O)Nc1ccc2ncnc(Nc3ccc(S(=O)(=O)Nc4ccccn4)cc3)c2c1" , target or system Epidermal growth factor receptor (Homo sapiens, UniProt P00533, L858R/T790M).
4390

====

Test system: NCI-H1975
Test: cells
Assay type: functional, cell-based
Conditions: Homo sapiens
pIC50: −log10 of the molar value.
Recorded Metric: pIC50

                           molecular_string  result
0  C=CC(=O)N1CCc2c(sc3ncnc(Nc4ccc(Br)cc4F)c23)C1  < 4.40
1  C=CC(=O)Nc1ccc2ncnc(Nc3ccc(S(N)(=O)=O)cc3)c2c1  < 4.40

Now look at this one.
# pIC50 lookup, item "C=CC(=O)Nc1ccc2ncnc(Nc3ccc(S(=O)(=O)Nc4ccccn4)cc3)c2c1"
< 4.40
